Below: a set of entries, each annotated with reported GI50.
- Tested on: T47D
- Test Description: Antiproliferative activity against human T47D cells after 48 hrs by SRB assay
- Format: functional

| Compound | Unit Symbol | GI50 |
| --- | --- | --- |
| C[C@]12CC[C@H](O)CC1=CC[C@@H]1[C@@H]2CC[C@]2(C)C(c3cccnc3)=CC[C@@H]12 [ABIRATERONE] | µM | 24 |
| C[C@]12CC[C@H](O)C[C@@H]1CC[C@@H]1[C@@H]2CC[C@@]2(C)[C@H]1CC[C@@]21CN=C(NC2CCCCC2)O1 | µM | 1.2 |
| C[C@]12CC[C@@H]3c4ccc(O)cc4CC[C@H]3[C@@H]1CC[C@@]2(O)CNC(=S)NC1CCCCC1 | µM | 3.9 |

----------
- Test system: T47D
- Test Description: Antiproliferative activity against human T47D cells after 48 hrs by SRB assay
- Type: functional
Value Kind: log10 GI50 (log10 of the value in µM)

| Query Smiles | log10 GI50 |
| --- | --- |
| C[C@]12CC[C@@H]3c4ccc(O)cc4CC[C@H]3[C@@H]1CC[C@@]2(O)CN | 1.48 |
| C[C@]12CC[C@H](O)CC1=CC[C@@H]1[C@@H]2CC[C@]2(C)C(n3cnc4ccccc43)=CC[C@@H]12 | 0.32 |
| C[C@]12CC[C@H](O)C[C@@H]1CC[C@@H]1[C@@H]2CC[C@@]2(C)[C@H]1CC[C@@]2(O)CN | 1.32 |
| C[C@]12CC[C@@H]3c4ccc(OCc5ccccc5)cc4CC[C@H]3[C@@H]1CC[C@@]2(O)CN=[N+]=[N-] | 0.61 |
| C[C@]12CC[C@@H]3c4ccc(O)cc4CC[C@H]3[C@@H]1CC[C@@]21CNC(=O)O1 | 0.64 |
| C[C@]12CC[C@H](O)C[C@@H]1CC[C@@H]1[C@@H]2CC[C@@]2(C)[C@H]1CC[C@@]2(O)CNC(=S)NC1CCCCC1 | 1.26 |
| CCCCNC1=NC[C@@]2(CC[C@H]3[C@@H]4CC[C@H]5C[C@@H](O)CC[C@]5(C)[C@H]4CC[C@@]32C)O1 | 0.08 |

----------
- Tested on: T47D
- Test Description: Antiproliferative activity against human T47D cells after 48 hrs by SRB assay
- Format: functional
Below: a set of entries, each annotated with reported GI50.

| Query Smiles | GI50 |
| --- | --- |
| C[C@]12CC[C@@H]3c4ccc(O)cc4CC[C@H]3[C@@H]1CC[C@@]2(O)CNC(=S)Nc1ccccc1 | 5.7 µM |
| CCCCNC(=S)NC[C@]1(O)CC[C@H]2[C@@H]3CC[C@H]4C[C@@H](O)CC[C@]4(C)[C@H]3CC[C@@]21C | 5.8 µM |
| COC(=O)NC[C@]1(O)CC[C@H]2[C@@H]3CCc4cc(O)ccc4[C@H]3CC[C@@]21C | 4.3 µM |
| C[C@]12CC[C@H](O)C[C@@H]1CC[C@@H]1[C@@H]2CC[C@@]2(C)[C@H]1CC[C@@]2(O)CN=[N+]=[N-] | > 100 µM |

----------
- System: T47D
- Test Description: Antiproliferative activity against human T47D cells after 48 hrs by SRB assay
- Type: functional

| Query Smiles | Measured On | GI50, µM |
| --- | --- | --- |
| C[C@]12CC[C@H](O)C[C@@H]1CC[C@@H]1[C@@H]2CC[C@@]2(C)[C@H]1CC[C@@]21CNC(=O)O1 | T47D | 4.5 |
| CCCCNC1=NC[C@@]2(CC[C@H]3[C@@H]4CCc5cc(O)ccc5[C@H]4CC[C@@]32C)O1 | T47D | 0.45 |
| C[C@]12CC[C@H](O)C[C@@H]1CC[C@@H]1[C@@H]2CC[C@@]2(C)[C@H]1CC[C@@]2(O)CNC(=S)Nc1ccccc1 | T47D | 34 |
| CCCCNC(=S)NC[C@]1(O)CC[C@H]2[C@@H]3CCc4cc(O)ccc4[C@H]3CC[C@@]21C | T47D | 3.9 |
| COC(=O)NC[C@]1(O)CC[C@H]2[C@@H]3CC[C@H]4C[C@@H](O)CC[C@]4(C)[C@H]3CC[C@@]21C | T47D | 41 |
| C[C@]12CC[C@@H]3c4ccc(O)cc4CC[C@H]3[C@@H]1CC[C@@]21CN=C(NC2CCCCC2)O1 | T47D | 0.71 |
| C[C@]12CC[C@@H]3c4ccc(O)cc4CC[C@H]3[C@@H]1CC[C@@]21CN=C(Nc2ccccc2)O1 | T47D | 2.6 |

----------
Below: a set of entries, each annotated with reported GI50 at 48 h.
- Test Description: Cytotoxicity against human hTERT-BJ cells assessed as cell growth inhibition after 48 hrs SRB assay
- Type: cell-based

| Query Smiles | Unit Symbol | Qualifier Symbol | GI50 at 48 h |
| --- | --- | --- | --- |
| C[C@]12CC[C@H](O)C[C@@H]1CC[C@@H]1[C@@H]2CC[C@@]2(C)[C@H]1CC[C@@]21CN=C(NC2CCCCC2)O1 | µM | = | 1.2 |
| C[C@]12CC[C@H](O)CC1=CC[C@@H]1[C@@H]2CC[C@]2(C)C(n3cnc4ccccc43)=CC[C@@H]12 | µM | = | 5 |
| CCCCNC1=NC[C@@]2(CC[C@H]3[C@@H]4CC[C@H]5C[C@@H](O)CC[C@]5(C)[C@H]4CC[C@@]32C)O1 | µM | < | 1 |
| C[C@]12CC[C@@H]3c4ccc(O)cc4CC[C@H]3[C@@H]1CC[C@@]21CN=C(Nc2ccccc2)O1 | µM | = | 1.4 |
| CCCCNC1=NC[C@@]2(CC[C@H]3[C@@H]4CCc5cc(O)ccc5[C@H]4CC[C@@]32C)O1 | µM | < | 1 |
| C[C@]12CC[C@H](O)CC1=CC[C@@H]1[C@@H]2CC[C@]2(C)C(c3cccnc3)=CC[C@@H]12 | µM | = | 4.5 |
| C[C@]12CC[C@@H]3c4ccc(O)cc4CC[C@H]3[C@@H]1CC[C@@]21CN=C(NC2CCCCC2)O1 | µM | < | 1 |
| C[C@]12CC[C@H](O)C[C@@H]1CC[C@@H]1[C@@H]2CC[C@@]2(C)[C@H]1CC[C@@]21CNC(=O)O1 | µM | < | 1 |
